Target: cysteines in MDA-MB-231 and Ramos cells (Homo sapiens, UniProt Q15365)
Sequence (Q15365 whole entry, the tested form may be a part): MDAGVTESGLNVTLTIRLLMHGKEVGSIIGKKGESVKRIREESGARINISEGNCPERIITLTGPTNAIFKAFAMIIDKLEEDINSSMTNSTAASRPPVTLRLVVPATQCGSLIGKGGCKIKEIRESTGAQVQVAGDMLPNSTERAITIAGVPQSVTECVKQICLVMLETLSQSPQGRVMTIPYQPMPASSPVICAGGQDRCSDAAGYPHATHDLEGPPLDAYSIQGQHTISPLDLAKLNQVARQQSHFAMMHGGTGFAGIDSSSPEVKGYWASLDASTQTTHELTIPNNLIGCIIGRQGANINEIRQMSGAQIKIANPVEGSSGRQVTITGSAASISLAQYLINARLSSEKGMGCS
Test: Competitive isoTOP-ABPP in situ (fragment-treated cells)
Format: cell-based
Conditions: 200 μM, insitu, 231
Is isoTOP-ABPP ratio Q15365_C194 at least 0.7? Then label 1. If not, label 0.

A selection of reference data follows.
record-smiles	assayed-system	assigned-class
Cc1ccc(C=C(C#N)C(=O)NCCN2CCOCC2)cc1	cysteines in MDA-MB-231 and Ramos cells (Homo sapiens, UniProt Q15365)	label 0
CC(C)CCOCCNC(=O)CCl	cysteines in MDA-MB-231 and Ramos cells (Homo sapiens, UniProt Q15365)	label 0
O=C(CCl)N1CCN(S(=O)(=O)c2ccccc2F)CC1	cysteines in MDA-MB-231 and Ramos cells (Homo sapiens, UniProt Q15365)	label 1

Could you verify whether the entry "O=C(CCl)NC12CC3CC(CC(C3)C1)C2" shows isoTOP-ABPP ratio Q15365_C194 of no less than 0.7? label 1
